Origin of values: patent US10519177B2

Recorded IC50 values for a group of compounds are listed next.
- target-or-test-system: BRD4-BD12 (1-477) (Homo sapiens (Human))
- assay-notes: Alphascreen binding assay BRD4-BD12
- experimental-conditions: BRD4(1 2) H4; read-out: Biochemical activity (IC50 μM) BRD4(1 2) H4

# count of solved cases: 2
Qu. Dear colleague, I am looking for the recorded IC50 of the following compound: Cc1noc(C)c1-c1cnc2c(-c3cn(C)nc3C(F)(F)F)cn(CC3CCC(F)(F)CC3)c2c1
Ans. < 1 µM

Qu. Dear colleague, I am looking for the recorded IC50 of the following compound: Cc1noc(C)c1-c1cnc2c(-c3cnn(CC(F)(F)F)c3)cn([C@H](C)c3ccc(F)cc3)c2c1
Ans. < 1 µM

More entries:
Qu. Dear colleague, I am looking for the recorded IC50 of the following compound: Cc1noc(C)c1-c1ccc2c(-c3ccc(C(=O)O)c(Cl)c3)cn(C(c3ccccc3)c3ccccn3)c2c1 (centres unmarked)
Ans. < 1 µM

Qu. Dear colleague, I am looking for the recorded IC50 of the following compound: Cc1noc(C)c1-c1cnc2c(-c3ccc(S(=O)(=O)NC4CC4)cc3)cn(CC3(F)CCCCC3)c2c1
Ans. < 1 µM

Qu. Dear colleague, I am looking for the recorded IC50 of the following compound: Cc1noc(C)c1-c1cnc2c(-c3cnn(C(F)F)c3)cn([C@@H](C)c3ccc(F)cc3)c2c1
Ans. < 1 µM

Qu. Dear colleague, I am looking for the recorded IC50 of the following compound: Cc1noc(C)c1-c1cnc2c(-c3cnn(CC(C)C)c3)cn(CC3CCC(F)(F)CC3)c2c1
Ans. < 1 µM

Qu. Dear colleague, I am looking for the recorded IC50 of the following compound: Cc1noc(C)c1-c1ccc2c(-c3cccc(CC(=O)O)c3)cn(C(c3ccccc3)c3ccccn3)c2c1 (centres unmarked)
Ans. < 1 µM

Qu. Dear colleague, I am looking for the recorded IC50 of the following compound: Cc1noc(C)c1-c1cnc2c(I)cn(C(c3ccccc3)c3ccccn3)c2c1 (centres unmarked)
Ans. < 1 µM
